experiment: Heavy metal removal ability test in contaminated soil (ICP-MS), cadmium; settings: content 2.0% aqueous solution; contaminated soil
assay-readout: Cadmium (Cd) Adsorption amount (ppm)
Answers are plain numbers, in ppm.

Take a look at these entries with their results.
[
  {
    "given-smiles": "O=C(O)CN1CCCN(CC(=O)O)CCN(CC(=O)O)CCCN(CC(=O)O)CC1",
    "Cadmium (Cd) Adsorption amount / ppm": 70
  },
  {
    "given-smiles": "O=C(O)c1cncc(N2CCCN(c3cncc(C(=O)O)c3)CCN(c3cncc(C(=O)O)c3)CCCN(c3cncc(C(=O)O)c3)CC2)c1",
    "Cadmium (Cd) Adsorption amount / ppm": 70
  },
  {
    "given-smiles": "O=C(O)c1ccc(N2CCCN(c3ccc(C(=O)O)cc3)CCN(c3ccc(C(=O)O)cc3)CCCN(c3ccc(C(=O)O)cc3)CC2)cc1",
    "Cadmium (Cd) Adsorption amount / ppm": 71
  },
  {
    "given-smiles": "O=C(O)c1ccc(N(CCN(CCN(c2ccc(C(=O)O)cc2)c2ccc(C(=O)O)cc2)c2ccc(C(=O)O)cc2)CCN(c2ccc(C(=O)O)cc2)c2ccc(C(=O)O)cc2)cc1",
    "Cadmium (Cd) Adsorption amount / ppm": 88
  }
]

Field: Cadmium (Cd) Adsorption amount. Fill in for each record below.
1. O=C(O)c1cncc(N2CCN(c3cncc(C(=O)O)c3)CCN(c3cncc(C(=O)O)c3)CCN(c3cncc(C(=O)O)c3)CC2)c1
2. O=C(O)CN(CCN(CCN(CC(=O)O)CC(=O)O)CC(=O)O)CCN(CC(=O)O)CC(=O)O

Reply:
1: 76; 2: 84
